# protocol summary: activators of LNCaP prostate cell differentiation, primary screen, flow cytometry side scatter (AID 795);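 note: androgen-responsive LNCaP prostate cancer cells in charcoal-stripped serum medium; percent of cells past a gate set so DMSO wells show 10% shift; higher shift means more granular cells and more differentiation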
# test settings: 4 d, at 10 µM, active compounds read high
Out of some 24,000 compounds screened, about 130 (0.54%) were called active. Many of the other results were omitted from the sample, so actives are more common in it than they were.
recorded metric: side scatter shift (%)
Please state the figure in %; there is no need to write the unit.

- compound: "CCC(C)Sc1nnc(-c2c[nH]c3ccccc23)n1CCOC (stereo unspecified)"
  recorded metric: "side scatter shift"
  result unit: "%"
  observed: 6
- compound: "COc1ccccc1NC(=O)C1=C(C)Nc2ncnn2C1c1ccc(C)o1 (stereo unspecified)"
  recorded metric: "side scatter shift"
  result unit: "%"
  observed: 16
- compound: "CCCCN(CC)CCCNC(=O)CS(=O)(=O)Cc1nc(-c2cccc(OC)c2)oc1C"
  recorded metric: "side scatter shift"
  result unit: "%"
  observed: 7

Then this compound:
query: // lookup side scatter shift for CC1CCc2c(sc3c2C2=NS(=O)(=O)CCN2C=N3)C1 (stereo unspecified)
result: 12

----------
# protocol summary: activators of LNCaP prostate cell differentiation, primary screen, flow cytometry side scatter (AID 795)
# test settings: 4 d, at 10 µM, active compounds read high
The whole screen tested about 24,000 compounds, of which about 130 (0.54%) were called active. This excerpt belongs to a sample that is enriched for actives.
Please use Satisfied whenever side scatter shift is not below 8%, and Not satisfied whenever it is.

These recorded examples may help you get a feel for the data.
- molecule: "CCn1c(=O)cc(OCC(=O)NCCCN2CCN(c3cccc(Cl)c3)CC2)c2ccccc21"
  category label: "Satisfied"
- molecule: "S=C1SCN(CCN2CCOCC2)CN1Cc1ccccc1"
  category label: "Satisfied"
- molecule: "O=C1NC(c2ccncc2)Nc2sc3c(c21)CCCC3 (stereo not given)"
  category label: "Not satisfied"

query: Reported side scatter shift reaches at least 8% for CCCC(=O)N1c2ccccc2NC2=C(C(=O)CCC2)C1c1ccc(F)cc1 (stereo not given) ?
result: Satisfied

query: Is the recorded value of side scatter shift equal to or greater than 8% for this molecule? CCOc1ccc(C(=O)N(Cc2ccc(N(C)C)cc2)C2CCS(=O)(=O)C2)cc1 (stereo not given)
result: Satisfied

query: Decide: side scatter shift of CC1CCCC(C)N1CCCNC(=O)c1cc2c(=O)n(C)c3ccccc3c2n1C (stereo not given) >= 8%?
result: Satisfied

query: Hi, just wondering whether `Cc1ccc(NC(=O)c2nc[nH]c2C(=O)N2CCCCC2)c(C(=O)c2ccccc2)c1` shows side scatter shift of 8% or higher.
result: Satisfied

query: Would you say `COCCN(CC(=O)Nc1ccccc1C)S(=O)(=O)c1ccc(S(=O)(=O)N2CCCC2)cc1` shows side scatter shift at minimum 8%?
result: Not satisfied

query: Please check the record `CCCN1CCN(C(=O)Cn2ncc3ccccc32)CC1` and state if its side scatter shift is at or above 8%.
result: Not satisfied

----------
# protocol summary: activators of LNCaP prostate cell differentiation, primary screen, flow cytometry side scatter (AID 795)
# test settings: 4 d, at 10 µM, active compounds read high
The whole screen tested about 24,000 compounds, of which about 130 (0.54%) were called active. Only a selection was taken, and actives are over-represented in it overall.
recorded metric: side scatter shift (%)
Report the value in % with no unit label.

Worked examples follow.
- molecule: "COc1cc2ccccc2cc1C(=O)Nc1ccc(S(=O)(=O)Nc2cc(C)on2)cc1"
  result unit: "%"
  side scatter shift: 12
- molecule: "C/C(=N\\O)C1(C)N(O)C(C)(C)C(c2ccc(Br)cc2)=[N+]1[O-] (stereo unspecified)"
  result unit: "%"
  side scatter shift: 11
- molecule: "CCCSc1nc2c(c(=O)[nH]c(=O)n2C)n1CCc1ccccc1"
  result unit: "%"
  side scatter shift: 9
- molecule: "Fc1ccc2nc(Nc3nc4c(s3)CCCC4)sc2c1"
  result unit: "%"
  side scatter shift: 11

query: Entry `Cn1c(CNC(=O)C(C)(C)C)nc2ccccc21` : reported side scatter shift = ?
result: 3

query: Name the reported side scatter shift value associated with the molecule CC(NC(=O)COc1ccccc1)C(=O)NC1=NCCS1 (stereo unspecified)
result: 13

query: Which value of side scatter shift has been reported for `COc1ccccc1-n1cnc2cc(NS(=O)(=O)c3ccccc3)ccc21` in the records?
result: 11

----------
# protocol summary: activators of LNCaP prostate cell differentiation, primary screen, flow cytometry side scatter (AID 795);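 note: androgen-responsive LNCaP prostate cancer cells in charcoal-stripped serum medium; percent of cells past a gate set so DMSO wells show 10% shift; higher shift means more granular cells and more differentiation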
# test settings: 4 d, at 10 µM, active compounds read high
Hit rate of the full screen: of about 24,000 compounds, about 130 (0.54%) were called active. The list comes from a sample in which actives are over-represented; it also holds close analogues and randomly drawn compounds.
side scatter shift below 6% gives rule not met; side scatter shift at or above it gives rule met.

Example entries and their recorded answers appear below.
- molecule: "COc1ccc(OC)c(CN2C(=O)CCC2(C)C(=O)NC2CCCCCC2)c1 (stereo not given)"
  category label: "rule met"
- molecule: "Cc1ccc(C(=O)N(CN2CCCC2=O)c2ccc(F)cc2)cc1"
  category label: "rule met"
- molecule: "CC1C=CCC2C(=O)N(c3cccc(C(=O)N4CCCCCC4)c3)C(=O)C12 (stereo not given)"
  category label: "rule not met"
- molecule: "CCOC(=O)C1CCCN(C(=O)Cn2ncc3c(=O)oc4ccc(C)cc4c32)C1 (stereo not given)"
  category label: "rule not met"
- molecule: "Cc1cc(=O)n(C)c(=O)n1CCCNc1ccccc1"
  category label: "rule met"
- molecule: "CCOC(=O)Nc1ccccc1N1C(=O)c2ccccc2C1=O"
  category label: "rule met"

query: Can `Cn1c(=O)cc(OCCCC(=O)N2CCN(c3ccccn3)CC2)c2ccccc21` be said to have side scatter shift at or above 6%?
result: rule not met

query: I'd appreciate it if you could say whether NC(=O)CSC1=Nc2ccccc2C2=NC(CCC(=O)NCc3ccc(F)cc3)C(=O)N12 (stereo not given) has side scatter shift at least equal to 6%.
result: rule not met

query: Hi team, for COc1ccc(OC)c(NC(=O)CC(Cc2ccccc2OC)C(=O)O)c1 (stereo not given) , is the recorded side scatter shift at or above 6%?
result: rule met

----------
Listed compounds paired with reported side scatter shift
# protocol summary: activators of LNCaP prostate cell differentiation, primary screen, flow cytometry side scatter (AID 795);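 note: androgen-responsive LNCaP prostate cancer cells in charcoal-stripped serum medium; percent of cells past a gate set so DMSO wells show 10% shift; higher shift means more granular cells and more differentiation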
# test settings: 4 d, at 10 µM, active compounds read high
Among all 24,000 compounds or so, about 130 (0.54%) were called active. The entries come from a sample that favours actives as a whole.
A number alone suffices; assume %.

- compound: "O=C(CSc1nc2ncccc2[nH]1)Nc1ccc2c(c1)OCCO2"
  side scatter shift / %: 3
- compound: "O=C(NC1CCCCC1)C1CCCN(S(=O)(=O)c2cccs2)C1 (configuration not stated)"
  side scatter shift / %: 4

query: # input compound: `COc1cccc(NS(=O)(=O)c2ccc3[nH]cc(C(=O)NCCCOC(C)C)c(=O)c3c2)c1` ; wanted: its side scatter shift
result: 11

query: // lookup side scatter shift for O=C(CC(Cc1ccccc1)C(=O)O)NCCc1ccc2c(c1)OCO2 (configuration not stated)
result: 6

query: Report side scatter shift for `CC(=O)c1c(N)n(C)c(=O)n(C)c1=O` please.
result: 0

query: Given the entry CCOC(=O)C1C(=O)C=C(c2ccc(OC)cc2)CC1c1ccco1 (configuration not stated) , report its measured side scatter shift.
result: 5

query: Could you share which side scatter shift value was measured for `O=C(NCc1cccnc1)c1ccc(CS(=O)(=O)c2ccc(Br)cc2)o1` ?
result: 4

query: Name the recorded side scatter shift for `COc1ccc(N=Cc2c(O)[nH]c3ccccc23)cc1OC` .
result: 15

query: Report side scatter shift for O=C(NC(=O)c1ccc(Cl)c(Cl)c1)OC1CCS(=O)(=O)C1 (configuration not stated) please.
result: 6

query: Any idea what side scatter shift was measured for `COc1ccc(OC)c(N=Cc2c(O)[nH]c3ccccc23)c1` ?
result: 48

query: For the compound `CCOC(=O)c1c(N)c(C#N)nn1-c1ccccc1C(=O)OC` , what side scatter shift is on record?
result: 6

query: Requested read-out: side scatter shift. Entry: Cc1nc2ccc(NC(=O)N3CCC(c4ccccc4)C3)cc2nc1C (configuration not stated)
result: 11

----------
# protocol summary: activators of LNCaP prostate cell differentiation, primary screen, flow cytometry side scatter (AID 795);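 note: androgen-responsive LNCaP prostate cancer cells in charcoal-stripped serum medium; percent of cells past a gate set so DMSO wells show 10% shift; higher shift means more granular cells and more differentiation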
# test settings: 4 d, at 10 µM, active compounds read high
Among all 24,000 compounds or so, about 130 (0.54%) were called active. This excerpt belongs to a sample that is enriched for actives. Square brackets hold non-standard residues; d marks the D form. Peptide text beside a SMILES is read from it. ξ: configuration not given here. ξV = CC(C)C(N)C(=O)O
Hi, to clarify the labels: yes (1) covers side scatter shift from 8% upward, no (0) covers anything below 8%.

Please review the entries below; each comes with its answer.
- compound: "CC1(C)C(=O)Nc2ccccc2N1C(=O)COC(=O)Cn1cnc2ccccc2c1=O"
  category label: "no (0)"
- compound: "O=c1ccn(Cc2ccccc2Cl)cc1"
  category label: "no (0)"
- compound: "COc1ccc(OC)c(CNC(=O)CCc2nc(-c3cccs3)no2)c1"
  category label: "yes (1)"
- compound: "CCN(CC)C(=O)c1sc(NC(=O)c2ccco2)c(C#N)c1C"
  category label: "no (0)"
- compound: "O=C(Cn1c(=O)n(Cc2ccco2)c(=O)c2ccccc21)NCC1CCCO1 (stereo unspecified)"
  category label: "no (0)"

query: Does CC(=O)NC(C(=O)NCC(N)=O)C(C)C (stereo unspecified) (Ac-[ξV]-Gly-NH2) have a reported side scatter shift of at least 8%?
result: no (0)

query: Test whether the compound `Cn1c2ccccc2c2c(C(=O)N3CCN(c4ccc(F)cc4)CC3)cn(C3CCCC3)c(=O)c21` records side scatter shift of 8% or higher.
result: no (0)
